assay: Inhibition of Haemophilus influenzae DNA gyrase-dependent DNA replication by scintillation proximity assay
assay_endpoint: IC50
Include the unit after the number when you answer.

> print(dat)
                                   compound  assay.endpoint  recorded.measurement
1  Cc1cc(F)c2c3c1ccc(=O)n3C[C@H]2CN1CCC(NCc2cc3c(nn2)OCCO3)CC1            IC50           0.099 µg/mL
2  COc1ccc2ccc(=O)n3c2c1[C@H](CN1CCC(NCc2cc4c(nn2)OCCO4)CC1)C3            IC50           0.276 µg/mL
3  O=c1cnc2ccc(F)c3c2n1C[C@H]3CN1CCC(NCc2cc3c(nn2)OCCO3)CC1            IC50           0.036 µg/mL
4  O=c1ccc2ccc(F)c3c2n1C[C@@H]3CN1CCC(NCc2cc3c(nn2)OCCO3)CC1            IC50           0.121 µg/mL
5  O=c1ccc2ccc(F)c3c2n1C[C@H]3CN1CCC(NCc2cc3c(nn2)OCCO3)CC1            IC50           0.034 µg/mL
6  O=C1CC(NCc2cc3c(nn2)OCCO3)CCN1C[C@@H]1Cn2c(=O)ccc3ccc(F)c1c32 (some centres undefined)            IC50           0.166 µg/mL
7  N#Cc1ccc2ccc(=O)n3c2c1[C@H](CN1CCC(NCc2cc4c(nn2)OCCO4)CC1)C3            IC50           0.062 µg/mL
8  Cc1ccc2ccc(=O)n3c2c1[C@H](CN1CCC(NCc2cc4c(nn2)OCCO4)CC1)C3            IC50           0.076 µg/mL

Query compound follows.
Qu. Query (compound): O=c1ccc2ccc(F)c3c2n1C[C@H]3CN1CCCC(CNCc2cc3c(nn2)OCCO3)C1 (some centres undefined) ; field requested: IC50
Ans. 0.666 µg/mL

###

measured_on: Voltage-gated inwardly rectifying potassium channel KCNH2 (Homo sapiens, UniProt Q12809)
Sequence (Q12809 whole entry): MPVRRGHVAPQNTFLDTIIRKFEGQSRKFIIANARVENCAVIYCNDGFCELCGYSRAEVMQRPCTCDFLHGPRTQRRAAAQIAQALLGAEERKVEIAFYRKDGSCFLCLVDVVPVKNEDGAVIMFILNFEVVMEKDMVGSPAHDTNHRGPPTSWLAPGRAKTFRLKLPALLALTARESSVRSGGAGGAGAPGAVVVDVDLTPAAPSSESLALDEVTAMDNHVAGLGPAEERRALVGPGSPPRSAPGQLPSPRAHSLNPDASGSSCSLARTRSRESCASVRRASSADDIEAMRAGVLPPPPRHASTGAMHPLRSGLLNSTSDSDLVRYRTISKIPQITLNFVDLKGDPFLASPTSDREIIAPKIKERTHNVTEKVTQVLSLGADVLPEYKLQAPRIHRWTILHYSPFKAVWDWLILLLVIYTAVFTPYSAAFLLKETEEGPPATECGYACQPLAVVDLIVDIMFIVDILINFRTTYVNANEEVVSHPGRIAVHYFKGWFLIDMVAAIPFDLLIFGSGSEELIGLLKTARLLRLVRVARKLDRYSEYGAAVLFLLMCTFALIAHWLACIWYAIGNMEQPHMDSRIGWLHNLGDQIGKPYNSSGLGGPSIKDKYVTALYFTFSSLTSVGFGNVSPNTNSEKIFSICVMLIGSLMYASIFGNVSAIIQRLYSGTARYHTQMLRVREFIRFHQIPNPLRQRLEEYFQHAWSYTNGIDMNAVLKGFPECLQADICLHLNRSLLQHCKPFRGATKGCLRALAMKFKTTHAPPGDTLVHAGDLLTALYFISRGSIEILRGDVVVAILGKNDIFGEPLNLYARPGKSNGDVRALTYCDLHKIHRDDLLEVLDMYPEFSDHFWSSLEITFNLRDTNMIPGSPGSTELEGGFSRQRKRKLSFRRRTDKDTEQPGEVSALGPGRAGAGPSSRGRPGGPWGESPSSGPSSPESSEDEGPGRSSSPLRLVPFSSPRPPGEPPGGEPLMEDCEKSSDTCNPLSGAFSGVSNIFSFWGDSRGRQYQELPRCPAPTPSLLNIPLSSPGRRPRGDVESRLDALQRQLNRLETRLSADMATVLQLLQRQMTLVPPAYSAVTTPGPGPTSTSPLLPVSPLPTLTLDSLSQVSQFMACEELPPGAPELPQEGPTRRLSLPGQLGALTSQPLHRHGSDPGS
assay: Inhibition of human ERG
assay_endpoint: IC50 (µM)
Give the value, in units of µM, as a plain number.

Qu. IC50 for O=c1ccc2ccc(F)c3c2n1C[C@H]3CN1CCC(NCc2cc3c(nn2)OCCO3)CC1 [GSK-945237] ?
Ans. 238

###

Known MIC of a selection of molecules
Test system: Streptococcus pneumoniae
assay: Antibacterial activity against quinolone-resistant Streptococcus pneumoniae TPS3 after 18 to 24 hrs by broth microdilution method
Format: functional
Write the number in mg/L without appending the unit.

> print(dat)
                                   molecule               measured.on  unit.descriptor  recorded.measurement
1  O=c1ccc2ccc(F)c3c2n1C[C@@H]3CN1CCC(NCc2cc3c(nn2)OCCO3)CC1  Streptococcus pneumoniae             mg/L                     8

Now take the following molecule into account.
Qu. May I ask what MIC has been recorded for N#Cc1ccc2ccc(=O)n3c2c1[C@H](CN1CCC(NCc2cc4c(nn2)OCCO4)CC1)C3 ?
Ans. 0.5

###

System: Streptococcus pneumoniae
assay: Antibacterial activity against quinolone-resistant Streptococcus pneumoniae TPS3 after 18 to 24 hrs by broth microdilution method
Format: functional
assay_endpoint: MIC (µg/mL)
Number in µg/mL, nothing else.

> print(dat)
                                   compound  assay.endpoint  unit.descriptor  recorded.measurement
1  O=c1ccc2ccc(F)c3c2n1C[C@H]3CN1CCCC(CNCc2cc3c(nn2)OCCO3)C1 (stereo partly drawn)             MIC            µg/mL                     4

Qu. Would you kindly share the measured MIC for O=C1CC(NCc2cc3c(nn2)OCCO3)CCN1C[C@@H]1Cn2c(=O)ccc3ccc(F)c1c32 (stereo partly drawn) ?
Ans. 16

Qu. Look up MIC: O=c1ccc2ccc(F)c3c2n1C[C@H]3CN1CCC(NCc2cc3c(nn2)OCCO3)CC1 [GSK-945237]
Ans. 0.25
